Study System: thromboxane synthetase (Rattus norvegicus, UniProt P49430)
Construct: The platelets were isolated by centrifuging the PRP for 10 minutes at 1060xg; from tissue; host or cells: washed blood platelets from Okamoto-Aoki spontaneously hypertensive rats (SHR)
Assay Comment: Inhibition of thromboxane (TX) formation (TXB2 radioimmunoassay) in washed rat platelets
Type: cell-based, Okamoto-Aoki spontaneously hypertensive rats (SHR)
Details: percent inhibition of TXB2 formation; drug at 10^-4M; SHR platelet suspension, 10 minutes at 37 C
Recorded inhibition at 100 µM, one value per entry.
Record the value in %, omitting the unit from your answer.

Check out these entries, answers already filled in.
O=c1c2ccccc2nnn1CCCCn1ccnc1
68
O=c1c2cc(Cl)ccc2nnn1CCCCc1cccnc1
85
CC(Cn1ccnc1)Cn1c(=O)[nH]c2ccc(Cl)cc2c1=O (centres unmarked)
100
CC(CCn1c(=O)[nH]c2c(Cl)cccc2c1=O)n1ccnc1 (centres unmarked)
71

Please examine the following record next.
Input line: Given Cc1cn(CCCCn2c(=O)[nH]c3ccc(Cl)cc3c2=O)cn1 , report its inhibition at 100 µM on thromboxane synthetase (Rattus norvegicus, UniProt P49430).
Output line: 70

====

Study System: thromboxane synthetase (Rattus norvegicus, UniProt P49430)
Construct: The platelets were isolated by centrifuging the PRP for 10 minutes at 1060xg; from tissue; host or cells: washed blood platelets from Okamoto-Aoki spontaneously hypertensive rats (SHR)
Assay Comment: Inhibition of thromboxane (TX) formation (TXB2 radioimmunoassay) in washed rat platelets
Assay type: cell-based, Okamoto-Aoki spontaneously hypertensive rats (SHR)
Details: percent inhibition of TXB2 formation; drug at 10^-4M; SHR platelet suspension, 10 minutes at 37 C
Readout Type: inhibition at 100 µM (%)
All answers are understood in %, so give the number only.

# annotated cases, reported inhibition at 100 µM shown
O=c1c2cc(Cl)ccc2nnn1CCCCCCCCn1ccnc1
90
O=c1c2cc(Cl)ccc2nnn1CCCCCn1ccnc1
82
O=c1c2cc(Cl)ccc2ncn1CCCCCCCCn1ccnc1
70
O=c1[nH]c2ccc([N+](=O)[O-])cc2c(=O)n1CCCn1ccnc1
100
O=c1[nH]c2ccc(Cl)cc2c(=O)n1CCCCn1ccnc1
93
O=c1[nH]c2cc(Cl)ccc2c(=O)n1CCCCn1ccnc1
59

Input line: State its inhibition at 100 µM for this compound: O=c1c2cccc(C(F)(F)F)c2nnn1CCCCCn1ccnc1
Output line: 87

Input line: Quote inhibition at 100 µM reported for Cc1ccc2[nH]c(=O)n(CCC(C)n3ccnc3)c(=O)c2c1 (stereo not drawn) please.
Output line: 88

Input line: Retrieve inhibition at 100 µM measured for O=c1[nH]c2ccc(Cl)cc2c(=O)n1CCCCCn1ccnc1 and print it.
Output line: 63

====

Study System: thromboxane synthetase (Rattus norvegicus, UniProt P49430)
Construct: The platelets were isolated by centrifuging the PRP for 10 minutes at 1060xg; from tissue; host or cells: washed blood platelets from Okamoto-Aoki spontaneously hypertensive rats (SHR)
Sequence (P49430 1-533): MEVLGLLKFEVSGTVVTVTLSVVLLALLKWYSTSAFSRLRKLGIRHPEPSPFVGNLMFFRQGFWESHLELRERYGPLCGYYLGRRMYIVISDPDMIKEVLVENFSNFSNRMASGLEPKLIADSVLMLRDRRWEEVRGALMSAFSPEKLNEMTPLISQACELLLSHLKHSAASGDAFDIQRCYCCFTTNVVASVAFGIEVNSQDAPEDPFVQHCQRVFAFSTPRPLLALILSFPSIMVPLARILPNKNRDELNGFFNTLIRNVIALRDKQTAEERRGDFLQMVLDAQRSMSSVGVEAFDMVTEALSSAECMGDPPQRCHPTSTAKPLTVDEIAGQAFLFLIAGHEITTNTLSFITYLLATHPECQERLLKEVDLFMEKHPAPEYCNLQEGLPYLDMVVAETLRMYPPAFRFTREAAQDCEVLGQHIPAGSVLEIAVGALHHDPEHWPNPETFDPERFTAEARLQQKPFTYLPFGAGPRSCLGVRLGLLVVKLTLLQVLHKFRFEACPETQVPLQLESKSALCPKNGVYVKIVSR
Assay Comment: Inhibition of thromboxane (TX) formation (TXB2 radioimmunoassay) in washed rat platelets
Type: cell-based, Okamoto-Aoki spontaneously hypertensive rats (SHR)
Details: percent inhibition of TXB2 formation; drug at 10^-4M; SHR platelet suspension, 10 minutes at 37 C
Text: The platelet rich plasma (PRP) was separated. […] The inhibition of thromboxane (TX) formation was studied by determing the concentration of thromboxane […] (TXB2), the stable hydrolysis product of TXA2.
Structures can show the parent of a compound that is named as a salt.
Readout Type: inhibition at 100 µM (%)
Record the value in %, omitting the unit from your answer.

# count of solved cases: 6
O=c1c2cc(Cl)ccc2nnn1CCCCCCCCCCn1ccnc1 [Example 91, fumarate]
80
O=c1c2cc(Cl)ccc2ncn1CCCn1ccnc1-c1ccccc1
96
O=c1c2cc(Cl)ccc2nnn1CCCn1ccnc1
74
O=c1c2cc(Br)ccc2ncn1CCCn1ccnc1
99
CC(CCn1c(=O)[nH]c2ccc(Cl)cc2c1=O)n1ccnc1 (centres unmarked)
98
CC(Cn1ccnc1)Cn1c(=O)[nH]c2ccccc2c1=O (centres unmarked)
100

Input line: Name the recorded inhibition at 100 µM of CC(Cn1ccnc1)Cn1cnc2ccccc2c1=O.Cl.Cl (centres unmarked) [Example 134, dihydrochloride] , assay system thromboxane synthetase (Rattus norvegicus, UniProt P49430).
Output line: 100

Input line: Give inhibition at 100 µM; test system thromboxane synthetase (Rattus norvegicus, UniProt P49430); compound O=c1[nH]c2ccccc2c(=O)n1CCCn1ccnc1
Output line: 76

Input line: Write inhibition at 100 µM of Cc1cn(CCCn2cnc3ccc(Cl)cc3c2=O)cn1 ; system used: thromboxane synthetase (Rattus norvegicus, UniProt P49430)
Output line: 89

Input line: Recall the reported inhibition at 100 µM of O=c1c2cc(Cl)ccc2ncn1CCCCc1cccnc1 when tested on thromboxane synthetase (Rattus norvegicus, UniProt P49430).
Output line: 100

Input line: Give measured inhibition at 100 µM for Cc1ccc2c(=O)n(CCCCn3ccnc3)nnc2c1C.Cl [Example 86, monohydrochloride] (thromboxane synthetase (Rattus norvegicus, UniProt P49430)).
Output line: 93

Input line: Report its inhibition at 100 µM with thromboxane synthetase (Rattus norvegicus, UniProt P49430) as the test system: CC(Cn1ccnc1)Cn1nnc2ccc([N+](=O)[O-])cc2c1=O.O (centres unmarked) [Example 87, hydrate]
Output line: 95

Input line: Look up and report measured inhibition at 100 µM (thromboxane synthetase (Rattus norvegicus, UniProt P49430)) for the following compound: Cc1ccc2ncn(CCC(C)n3ccnc3)c(=O)c2c1 (centres unmarked)
Output line: 87

====

Form field: inhibition at 100 µM (one value per entry).
Study System: thromboxane synthetase (Rattus norvegicus)
Construct: The platelets were isolated by centrifuging the PRP for 10 minutes at 1060xg; from tissue; host or cells: washed blood platelets from Okamoto-Aoki spontaneously hypertensive rats (SHR)
Assay Comment: Inhibition of thromboxane (TX) formation (TXB2 radioimmunoassay) in washed rat platelets
Assay type: cell-based, Okamoto-Aoki spontaneously hypertensive rats (SHR)
Details: percent inhibition of TXB2 formation; drug at 10^-4M; SHR platelet suspension, 10 minutes at 37 C
Structures can show the parent of a compound that is named as a salt.

Worked cases, answers included:
O=c1c2ccccc2nnn1CCCCCCn1ccnc1 [Example 102, monohydrochloride]
96%
O=c1c2cc(Cl)ccc2ncn1CCCn1ccnc1 [Example 138]
75%
O=c1c2ccccc2nnn1CCCCc1cccnc1 [Example 90]
75%

Input line: Specify measured inhibition at 100 µM for O=c1c2cc(Cl)ccc2ncn1CCCCn1ccnc1 [Example 124] .
Output line: 99%

Input line: For the compound O=c1c2ccccc2nnn1CCCn1ccnc1 , give its measured inhibition at 100 µM value.
Output line: 97%

====

Study System: thromboxane synthetase (Rattus norvegicus, UniProt P49430)
Construct: The platelets were isolated by centrifuging the PRP for 10 minutes at 1060xg; from tissue; host or cells: washed blood platelets from Okamoto-Aoki spontaneously hypertensive rats (SHR)
Assay Comment: Inhibition of thromboxane (TX) formation (TXB2 radioimmunoassay) in washed rat platelets
Format: cell-based, Okamoto-Aoki spontaneously hypertensive rats (SHR)
Details: percent inhibition of TXB2 formation; drug at 10^-4M; SHR platelet suspension, 10 minutes at 37 C
Readout Type: inhibition at 100 µM (%)
Give the value, in units of %, as a plain number.

Recorded results for 3 compounds are shown here.
O=c1[nH]c2ccccc2c(=O)n1CCCCn1ccnc1 [Example 11]
100
O=c1c2ccccc2ncn1CCCCn1ccnc1 [Example 123]
83
Cc1cn(CCCn2nnc3ccc(Cl)cc3c2=O)cn1 [Example 92]
85

// next entry
Input line: Report measured inhibition at 100 µM on thromboxane synthetase (Rattus norvegicus, UniProt P49430); entry: Cl.O=c1c2cc(Br)ccc2nnn1CCCCn1ccnc1 [Example 82, monohydrochloride]
Output line: 96

====

Study System: thromboxane synthetase (Rattus norvegicus)
Construct: The platelets were isolated by centrifuging the PRP for 10 minutes at 1060xg; from tissue; host or cells: washed blood platelets from Okamoto-Aoki spontaneously hypertensive rats (SHR)
Assay Comment: Inhibition of thromboxane (TX) formation (TXB2 radioimmunoassay) in washed rat platelets
Type: cell-based, Okamoto-Aoki spontaneously hypertensive rats (SHR)
Details: percent inhibition of TXB2 formation; drug at 10^-4M; SHR platelet suspension, 10 minutes at 37 C
Structures can show the parent of a compound that is named as a salt.
Readout Type: inhibition at 100 µM (%)
Reply with just the number (in %).

O=c1[nH]c2ccc(Cl)cc2c(=O)n1CCCn1ccnc1-c1ccccc1 [Example 27]
52
CC(CCn1c(=O)[nH]c2ccccc2c1=O)n1ccnc1 (stereo not shown) [Example 20]
100
O=c1[nH]c2ccccc2c(=O)n1CCCCCn1ccnc1 [Example 18]
98

Input line: Respond only with inhibition at 100 µM recorded for O=c1c2cc(Br)ccc2ncn1CCCCc1cccnc1
Output line: 99

Input line: Give reported inhibition at 100 µM value for O=c1[nH]c2ccc(Br)cc2c(=O)n1CCCCn1ccnc1 [Example 12]
Output line: 98

Input line: Please give the documented inhibition at 100 µM of O=c1c2cc(Cl)ccc2nnn1CCCCn1ccnc1
Output line: 97

Input line: Determine from records and report inhibition at 100 µM for O=c1c2ccccc2ncn1CCCCCCn1ccnc1 [Example 136, dihydrochloride]
Output line: 86
